B1: FAM46D (parent)
chain: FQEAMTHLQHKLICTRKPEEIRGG

# Variants of: B1
# Measurement description: protein stability index of a GFP-peptide fusion (GPS, HEK-293T) (PSI 1-6); higher = more stable;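 also: lentivirally expressed fusions sorted by FACS into six bins by GFP to DsRed ratio, PSI derived from sequencing read proportions per bin multiplied by bin number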
# Details: c terminus: a fixed tail appended
Measured protein stability index accompanies every entry in the list below.
Answer with a number only.

Solved entries:
E3Q = 2.52
H7G = 2.71

E20W has a reported protein stability index of 2.08
